Recorded inhibition in vivo at 3 mg/kg values for a group of compounds are listed next.
- Test system: PAF
- run.description: Inhibition of PAF-Induced Platelet Aggregation (Inhib. of PAF Platelet Reduction)
- Type: in vivo, guinea pig
- condition.summary: Cavia porcellus, iv, 3 mg/kg i.v.
Answer in %, number only, no unit symbol.

Answered examples (5):
Dear colleague, I am looking for the recorded inhibition in vivo at 3 mg/kg of the following compound: CCCc1c(O)c(C(C)=O)cc(Cl)c1OCc1cccc(-c2nnnn2CCCc2cccnc2)c1
25

For CCCc1c(OCCCCc2nnnn2CCc2cccnc2)ccc(C(C)=O)c1O then?
48

Same again, this time with CCCc1c(O)c(C(C)=O)cc(Cl)c1OCCCCCc1nnnn1CCCCc1cccnc1
7

Now this one: CCCc1c(OCCCCc2nnnn2CCCn2ccnc2)ccc(C(C)=O)c1O
3

Same question, CCCc1c(OCCCc2nnnn2CCCCc2cccnc2)ccc(C(C)=O)c1O this time
40

More entries:
Entry CCCc1c(OCCCCCc2nnnn2CCCc2cccnc2)ccc(C(C)=O)c1OC(C)=O has what inhibition in vivo at 3 mg/kg?
31

Moving on to CCCc1c(OCCCCCc2nnnn2CCCc2cccnc2)ccc(C(C)=O)c1O
12

Can you check CCCc1c(OCCCCCc2nnnn2CCCCc2cccnc2)ccc(C(C)=O)c1O next?
0

###

Property: IC50; scope: individual compounds
- measured.target: PAF binding to dog platelets (Canis lupus familiaris, UniProt A0A8I3NSH0)
- Sequence (A0A8I3NSH0 1-343): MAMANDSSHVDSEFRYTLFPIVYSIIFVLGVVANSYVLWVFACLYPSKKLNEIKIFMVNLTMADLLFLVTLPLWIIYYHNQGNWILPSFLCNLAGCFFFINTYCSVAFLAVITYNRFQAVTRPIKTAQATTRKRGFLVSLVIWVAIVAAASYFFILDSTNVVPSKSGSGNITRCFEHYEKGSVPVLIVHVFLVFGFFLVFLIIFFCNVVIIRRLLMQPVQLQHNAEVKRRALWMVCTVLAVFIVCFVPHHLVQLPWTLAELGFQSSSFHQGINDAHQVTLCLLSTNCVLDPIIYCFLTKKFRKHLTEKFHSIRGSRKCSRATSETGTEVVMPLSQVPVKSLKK
- run.description: PAF Radioreceptor Binding Assay (PAF Binding)
- condition.summary: inhibition of 3H-PAF binding to dog platelets, 10 min, room temperature
Numeric only. Scale: nM

Using the record for CCCc1c(OCCCCCc2nnn(CCCCc3cccnc3)n2)ccc(C(C)=O)c1O [5 4 3-pyridyl] , report its IC50.
480

New cases:
Look up IC50 for this compound: CCCc1c(OCCCCCc2nnnn2CCCc2cccnc2)ccc(C(C)=O)c1OC(C)=O [H Ac 5 3 3-pyridyl]
180

CCCc1c(OCCCCCc2nnnn2CCCCc2cccnc2)ccc(C(C)=O)c1O [H H 5 4 3-pyridyl] , same question.
275

Also, CCCc1c(OCCCCc2nnnn2CCCc2cccnc2)ccc(C(C)=O)c1O [H H 4 3 3-pyridyl] please.
125

Now give it for CCCc1c(OCCCCc2nnnn2CCc2cccnc2)ccc(C(C)=O)c1O [H H 4 2 3-pyridyl] too.
1000

Same question for CCCc1c(OCCCc2nnnn2CCCCc2cccnc2)ccc(C(C)=O)c1O [H H 3 4 3-pyridyl] please.
450

Try the compound CCCc1c(OCc2cccc(-c3nnnn3CCCc3cccnc3)c2)ccc(C(C)=O)c1O
200

###

- measured.target: UniProt:A0A8I3NSH0
- run.description: PAF Radioreceptor Binding Assay (PAF Binding)
- condition.summary: inhibition of 3H-PAF binding to dog platelets, 10 min, room temperature
The reader will find reported IC50 values listed item by item below.
Report the value in nM with no unit label.

What IC50 appears in the records for this compound with UniProt:A0A8I3NSH0? CCCc1c(OCCCc2nnn(CCCCc3cccnc3)n2)ccc(C(C)=O)c1O
1000

###

- measured.target: UniProt A0A8I3NSH0
- run.description: PAF Radioreceptor Binding Assay (PAF Binding)
- condition.summary: inhibition of 3H-PAF binding to dog platelets, 10 min, room temperature
metric.name: IC50 (nM)
Answer in nM, number only, no unit symbol.

Worked cases, IC50 given:
If you can, please state the reported IC50 value of CCCc1c(OCCCc2nnnn2CCCc2cccnc2)ccc(C(C)=O)c1O .
250

Proceed to CCCc1c(OCCCCCc2nnnn2Cc2cccnc2)ccc(C(C)=O)c1O
800

Now this one: CCCc1c(OCCCCCc2nnnn2CCCc2cccnc2)ccc(C(C)=O)c1O
150

Continue with CCCc1c(OCCCCc2nnnn2CCCn2ccnc2)ccc(C(C)=O)c1O
175

***
Which IC50 is reported for this compound? CCCc1c(O)c(C(C)=O)cc(Cl)c1OCCCCCc1nnnn1CCCCc1cccnc1
140

Same read-out for CCCc1c(O)c(C(C)=O)cc(Cl)c1OCc1cccc(-c2nnnn2CCCc2cccnc2)c1 ?
25
